Molecular target: Papain (Carica papaya)
Construct: purchased Sigma
Sequence (P00784 134-345): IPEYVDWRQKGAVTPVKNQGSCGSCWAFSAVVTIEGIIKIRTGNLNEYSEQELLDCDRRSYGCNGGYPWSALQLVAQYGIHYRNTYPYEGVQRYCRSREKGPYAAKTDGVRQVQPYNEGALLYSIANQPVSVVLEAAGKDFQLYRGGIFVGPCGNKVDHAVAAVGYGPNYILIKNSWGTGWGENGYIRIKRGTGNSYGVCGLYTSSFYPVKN
Assay: Inhibition of Papain (protocol as for Cathepsine K)
Assay type: biochemical
Protocol: Les produits à tester (10 mM) sont dilués à 1 mM en DMSO et repartis dans des plaques 96 puits polystyrène Nunc à raison de 2 µl par puits. La colonne 12 de la plaque est réservée pour les contrôles et reçoit donc […] de DMSO (sans produits) par puits. Les plaques sont conservées à -80°C et décongelées le jour de l'expérience. Les produits sont dilués à 50 µM par addition de 38 µl de tampon réaction : acétate de sodium 100 mM, EDTA 5 mM, DTT 1 mM pH 5,5. […]
measured.endpoint: pIC50
When answering, recall that pIC50 equals minus log10 of the concentration in mol/L, and write that number alone.

-- ask Output measured pIC50 for this item: CC(C)(C)Oc1ccc(C[C@H](NC(=O)[C@@H]2CCCN3C(=O)CC[C@H](NC(=O)Nc4ccc(Oc5ccccc5)cc4)C(=O)N23)C(=O)C=[N+]=[N-])cc1
-- reply 4.82
